- TESTED ON: HLA A0206 (Homo sapiens, UniProt P04439, D140Y/D185E/D98H/E176V/E277Q/F33Y/G131W/G231S/I119V/I121R/I166T/I218V/L300P/L318F/N151K/N90K/P208A/P217A/Q86G/Q94H/R138H/R169H/T345S)
- PROTOCOL SUMMARY: HLA class I competition binding assay using soluble HLA
pIC50: −log10 of the molar value. Where no end group is shown, it is not given here.
VALUE KIND: pIC50

1) KLTNTGLYNV [compound 31] :: 7.08
2) TVYVFCFLL [compound 29] :: 7.59
3) ILYAHIQCL [compound 27] :: 6.63
4) KLTNKGICDL [compound 54] :: 6.32

###

- TESTED ON: HLA A0301 (Homo sapiens, UniProt P04439)
- Construct: endogenous in cells
- PROTOCOL SUMMARY: HLA class I competition binding assay using soluble HLA
Where no end group is shown, it is not given here.
VALUE KIND: IC50 (µM)

1. FVVYRDSIPK [compound 36] :: 3.44
2. KVSEFRWYRY [compound 59] :: 0.213
3. ATTPIIHLK [compound 58] :: 0.01

###

- TESTED ON: HLA A3301 (Homo sapiens, UniProt P04439, A270S/D185E/E176V/E277Q/E87N/F33T/G231S/H175R/I121M/I218V/I322F/K168Q/K210R/L300P/L318F/M331R/P217A/Q86R/Q94H/R138Q/T323A/T345S/T97I/V358M/Y195H)
- PROTOCOL SUMMARY: HLA class I competition binding assay using soluble HLA
Where no end group is shown, it is not given here.
VALUE KIND: IC50

1. STVSVGTAK [compound 34] :: > 20 µM
2. ATTPIIHLK [compound 58] :: > 20 µM
3. VTTRYPLLR [compound 81] :: > 20 µM
4. AATKYPLLK [compound 17] :: > 20 µM

###

- TESTED ON: HLA A2402 (Homo sapiens, UniProt P04439, D101N/D140Y/D185E/E176V/E190D/F33S/G103R/G107R/I119L/I121M/I306V/K335N/L105A/L180Q/L300P/N151K/N90K/Q86E/Q94H/R106L/R138H/R89G/T104I/T345S/V100E/W191G/Y123F)
- PROTOCOL SUMMARY: HLA class I competition binding assay using soluble HLA
pIC50: −log10 of the molar value. Where no end group is shown, it is not given here.
# Lookup of reported pIC50 keyed by entry
VALUE KIND: pIC50

1) HYTNWKFIF [compound 63] :: 8.07
2) FYSKVSEFRW [compound 65] :: 8.35
3) LYGVSFSEL [compound 18] :: 8.51
4) VYVCAFAWLL [compound 86] :: 8.08
5) YYITETGIW [compound 85] :: 8.07
6) YYMTDAGTW [compound 40] :: 8.49
7) FYSRIRELRF [compound 88] :: 8.49
8) PYLHSRLVVF [compound 61] :: 7.41
9) SYFGMSFIHF [compound 39] :: 7.76

###

- TESTED ON: HLA A0201 (Homo sapiens, UniProt P04439, D140Y/D185E/D98H/E176V/E277Q/G131W/G231S/I119V/I121R/I166T/I218V/L300P/L318F/N151K/N90K/P208A/P217A/Q86G/Q94H/R138H/R169H/T345S)
- PROTOCOL SUMMARY: HLA class I competition binding assay using soluble HLA
pIC50: −log10 of the molar value. Where no end group is shown, it is not given here.
VALUE KIND: pIC50

1) TVYVFCFLL [compound 29] :: 6.76
2) SLVFLLCFSV [compound 74] :: 8.07
3) FVYIPLFLI [compound 8] :: 6.69
4) GTLGIVCPV [compound 11] :: 7.70
5) KLLSKLLCV [compound 7] :: 7.51
6) FIYIPLFVI [compound 52] :: 7.59
7) TLHDIILECV [compound 9] :: 8.44
